Where these numbers come from: ChEMBL document CHEMBL3603779

Assay: Unbound fraction in mouse plasma at 10 uM by LCMS/MS detection based equilibrium dialysis method
Format: ADME, cell-free
Property: fraction unbound at 10 µM; scope: individual molecules
readout.label: fraction unbound at 10 µM

smiles.input	recorded.measurement
CCn1c([C@@H](C)NS(=O)(=O)c2ccc(C#N)nc2)nc2cnc(C(F)(F)F)cc21	0.53
CCn1c([C@@H](C)NS(=O)(=O)c2ccc(C#N)nc2)nc2cnc(C3CC3)cc21	0.41

---

Assay: Intrinsic clearance in human liver microsomes pre-incubated at 37 degC for 5 mins before NADPH addition by LCMS/MS method
Type: ADME
Settings: read-out: CLH
Entries annotated with measured microsomal CLint

smiles.input	microsomal CLint
CCn1c([C@@H](C)NS(=O)(=O)c2ccc(Cl)cc2)nc2cccc(Cl)c21	> 100 µL/min/mg
CCCn1ncc(S(=O)(=O)N[C@H](C)c2nc3ccc(C(F)(F)F)cc3n2CC)c1C	> 100 µL/min/mg
CCn1c([C@@H](C)NS(=O)(=O)c2ccc(C)cc2)nc2ccc(C(F)(F)F)cc21	> 100 µL/min/mg
CCn1c([C@@H](C)NS(=O)(=O)c2ccccn2)nc2ccc(C(F)(F)F)cc21	< 3 µL/min/mg
CCn1c([C@@H](C)NS(=O)(=O)c2ccc(Cl)cc2)nc2cc(C(N)=O)ccc21	< 5 µL/min/mg
CCn1c([C@@H](C)NS(=O)(=O)c2ccc(Cl)cc2)nc2ccc(OC)cc21	> 100 µL/min/mg
CCn1c([C@@H](C)NS(=O)(=O)c2cccnc2)nc2ccc(C(F)(F)F)cc21	> 100 µL/min/mg
CCCn1cc(S(=O)(=O)N[C@H](C)c2nc3ccc(C(F)(F)F)cc3n2CC)c(C)n1	> 100 µL/min/mg
CCn1c([C@@H](C)NS(=O)(=O)c2cccc(Cl)c2)nc2ccc(C(F)(F)F)cc21	> 100 µL/min/mg
CCn1c([C@@H](C)NS(=O)(=O)c2ccc(Cl)cc2)nc2ccc(S(C)(=O)=O)cc21	< 5 µL/min/mg
